molecular target: human V1A receptor (Homo sapiens)
Sequence (P37288 whole entry): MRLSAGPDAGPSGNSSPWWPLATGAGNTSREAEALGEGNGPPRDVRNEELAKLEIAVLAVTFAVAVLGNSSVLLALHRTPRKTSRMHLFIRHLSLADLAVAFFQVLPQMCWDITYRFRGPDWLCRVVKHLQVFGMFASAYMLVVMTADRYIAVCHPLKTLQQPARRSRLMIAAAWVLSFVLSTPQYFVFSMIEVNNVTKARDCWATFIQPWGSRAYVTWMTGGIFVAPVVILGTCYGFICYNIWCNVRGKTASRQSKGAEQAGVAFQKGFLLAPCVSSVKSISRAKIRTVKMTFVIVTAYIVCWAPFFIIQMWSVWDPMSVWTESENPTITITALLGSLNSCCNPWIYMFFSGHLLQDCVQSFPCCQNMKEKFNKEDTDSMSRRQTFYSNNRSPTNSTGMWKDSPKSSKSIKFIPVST
Quantity: Ki (nM)

>>> assay_result("O=C(c1cc(Cl)ccc1F)N1CCC(c2nnc(Cn3nccn3)n2-c2ccc(Cl)cc2)CC1 [Example 399]")
1.99
>>> assay_result("O=C(c1ccc(C(F)F)cc1)N1CCC(c2nnc(Cn3nccn3)n2-c2ccc(Cl)cc2)CC1 [Example 206]")
2.43
